test: log P determination by HPLC (reversed-phase C18), EEC Directive 79/831 Annex V.A8
Format: physicochemical
condition: reversed-phase C18 HPLC column; pH 2.3; HPLC, reversed-phase C 18, 43° C., 0.1% aqueous phosphoric acid/acetonitrile; read-out: log P (pH 2.3)
quantity-name: chromatographic logP

[[record]]
compound = "CC(=O)NCC(C)OC(=O)CSc1nccc(-c2ccccn2)n1 (centres unmarked)"
quantity_name = "chromatographic logP"
value_measured = 1.97

[[record]]
compound = "O=C(CSc1nccc(-c2ccccn2)n1)NCCc1ccc(OC(F)(F)F)cc1"
quantity_name = "chromatographic logP"
value_measured = 2.96

[[record]]
compound = "CCOC(=O)/C=C/CSc1nccc(-c2ccccn2)n1"
quantity_name = "chromatographic logP"
value_measured = 2.92

[[record]]
compound = "COCN(C)C(=O)COC(=O)CSc1nccc(-c2ccccn2)n1"
quantity_name = "chromatographic logP"
value_measured = 1.96

[[record]]
compound = "CC1(COC(=O)CSc2nccc(-c3ccccn3)n2)COC1"
quantity_name = "chromatographic logP"
value_measured = 1.98

